Test system: NLRP3
Experiment: IL-1β secretion assay in PMA-differentiated, LPS/nigericin-stimulated THP-1 cells (384-well, ELISA read-out)
Assay type: cell-based, human
Conditions: Homo sapiens, THP-1, Table 4; IL-1β secretion, LPS/nigericin-stimulated THP-1 cells; read-out: IC50
Exercise: for every item that follows, state its recorded pIC50.
Please note pIC50 is a logarithmic value: minus log10 of concentration in mol/L. Answer with that number alone.

I'd like to know its pIC50. The compound in question is `O=C(CN1CC2(CC2)c2c(F)cccc2C1=O)Nc1ncccn1`
5.06

Consider next the compound `N#Cc1cnc(NC(=O)CN2CC3(CC3)c3cc(Br)ccc3C2=O)nc1` in the same way.
7.33

Consider next the compound `COc1ccc(NC(=O)CN2CC3(CC3)c3cc(Br)ccc3C2=O)cn1` in the same way.
5.46

Consider next the compound `Cc1nc(NC(=O)CN2CC3(CC3)c3cc(Br)ccc3C2=O)nn1C` in the same way.
5.74

Consider next the compound `COc1ccc2nc(NC(=O)CN3CC4(CC4)c4cc(Br)ccc4C3=O)nn2c1` in the same way.
6.60

Consider next the compound CC(F)c1ccc2c(c1)C1(CC1)CN(CC(=O)Nc1ncc(F)cn1)C2=O (stereo not drawn) in the same way.
5.99

Consider next the compound `N#Cc1cnc(NC(=O)CN2CC3(CC3)c3cc(Br)ccc3C2=O)c(F)c1` in the same way.
6.46

Consider next the compound `Cn1cc2nc(NC(=O)CN3CC4(CC4)c4cc(Br)ccc4C3=O)ccc2n1` in the same way.
6.16

Consider next the compound `O=C(CN1CC2(CC2)c2c(ccc(Br)c2F)C1=O)Nc1ncc(F)cn1` in the same way.
7.17

###

Test system: NLRP3
Assay: IL-1β secretion assay in PMA-differentiated, LPS/nigericin-stimulated THP-1 cells (384-well, ELISA read-out)
Assay type: cell-based, human
Conditions: Homo sapiens, THP-1, Table 4; IL-1β secretion, LPS/nigericin-stimulated THP-1 cells; read-out: IC50
OBSERVATION TYPE: pIC50
Please note pIC50 is a logarithmic value: minus log10 of concentration in mol/L. Answer with that number alone.

I'd like to know its pIC50. The compound in question is O=C(CN1CC2(CC2)c2cc(C3COC3)ccc2C1=O)Nc1ncc(F)cn1 [Example 336]
4.63

Consider next the compound N#Cc1cc(F)cnc1NC(=O)CN1CC2(CC2)c2cc(Br)ccc2C1=O [Example 392] in the same way.
5.24

Consider next the compound CC1CC(NC(=O)CN2CC3(CC3)c3cc(Br)ccc3C2=O)C1 (stereo not shown) [Example 52] in the same way.
5.68

Consider next the compound O=C(CN1CC2(CC2)c2cc(Br)ccc2C1=O)Nc1ccncc1F [Example 11] in the same way.
6.27

Consider next the compound O=C(CN1CC2(CC2)c2cc(Br)ccc2C1=O)Nc1cc2ccccn2n1 [Example 383] in the same way.
5.91

Consider next the compound O=C(CN1CC2(CC2)c2cc(Br)ccc2C1=O)Nc1nccc(=O)[nH]1 [Example 214] in the same way.
5.12

Consider next the compound O=C(CN1CC2(CC2)c2cc(Br)ccc2C1=O)Nc1ccc2nc[nH]c2c1 [Example 169] in the same way.
6.22

Consider next the compound N#Cc1cccc2oc(NC(=O)CN3CC4(CC4)c4cc(Br)ccc4C3=O)nc12 [Example 356] in the same way.
5.64

Consider next the compound N#Cc1cnc(NC(=O)CN2C[C@]3(C[C@H]3F)c3cc(Br)ccc3C2=O)nc1 [Example 272] in the same way.
7.85

Consider next the compound Cc1c(NC(=O)CN2CC3(CC3)c3cc(Br)ccc3C2=O)nn2ccccc12 [Example 402] in the same way.
5.03

Consider next the compound O=C(CN1C[C@@]2(C[C@@H]2F)c2c(ccc(C3CC3)c2F)C1=O)Nc1ncc(F)cn1 (single isomer, unassigned) [Example 228] in the same way.
7.68

Consider next the compound Cc1nc(-c2ccnc(NC(=O)CN3CC4(CC4)c4cc(Br)ccc4C3=O)n2)cs1 [Example 187] in the same way.
6.06

Consider next the compound O=C(CN1CC2(CC2)c2cc(Br)ccc2C1=O)NC1CCN(CC(F)F)CC1 [Example 367] in the same way.
4.93

Consider next the compound O=C(CN1CC2(CC2)c2cc(Br)ccc2C1=O)Nc1ccc2nccn2n1 [Example 180] in the same way.
6.29

Consider next the compound C=C(F)c1ccc2c(c1)[C@@]1(C[C@H]1F)CN(CC(=O)Nc1ncc(F)cn1)C2=O [Example 273] in the same way.
7.23

Consider next the compound O=C(CN1CC2(CC2)c2cc(Br)ccc2C1=S)Nc1ncc(F)cn1 [Example 102] in the same way.
6.77

Consider next the compound CC1CN(CC(=O)Nc2ncccn2)C(=O)c2ccc(Br)cc21 (stereo not shown) [Example 74] in the same way.
5.75

Consider next the compound O=C(CN1CC2(CC2)c2cc(Br)ccc2C1=O)NC1CCN(c2ccc(Cl)nn2)CC1 [Example 165] in the same way.
5.79

Consider next the compound O=C(CN1CC2(CC2)c2cc([C@@]3(F)C[C@@H]3F)ccc2C1=O)Nc1ncc(F)cn1 (single isomer, unassigned) [Example 251] in the same way.
6.26

Consider next the compound Cc1cncc(NC(=O)CN2CC3(CC3)c3cc(Br)ccc3C2=O)n1 [Example 171] in the same way.
4.96

Consider next the compound O=C(CN1CC2(CC2)c2cc(Br)ccc2C1=O)NC1CCN(c2ccccn2)CC1 [Example 379] in the same way.
5.05

Consider next the compound CC12CC(NC(=O)CN3CC4(CC4)c4cc(Br)ccc4C3=O)(CO1)C2 [Example 53] in the same way.
5.11

Consider next the compound O=C(CN1CC2(CC2)c2cc(Br)ccc2C1=O)Nc1ncc(F)s1 [Example 163] in the same way.
5.18

Consider next the compound O=C(CN1CC2(CC2)c2cc(Br)ccc2C1=O)NCC(O)c1ccc(F)cc1 (stereo not shown) [Example 132] in the same way.
4.53

Consider next the compound Cc1cnc(NC(=O)CN2CC3(CC3)c3cc(Br)ccc3C2=O)nc1 [Example 202] in the same way.
6.73

Consider next the compound O=C(CN1CC2(CC2)c2cc(Br)ccc2C1=O)Nc1nccn2cnnc12 [Example 350] in the same way.
5.44

Consider next the compound O=C(CN1CC2(CC2)c2cc(Br)ccc2C1=O)Nc1nccc2cccnc12 [Example 349] in the same way.
5.32

Consider next the compound Cn1cc(N2CCCC(NC(=O)CN3CC4(CC4)c4cc(Br)ccc4C3=O)C2)cn1 (stereo not shown) [Example 417] in the same way.
4.93

Consider next the compound CC1(O)CC(NC(=O)CN2C[C@]3(C[C@H]3F)c3cc(Br)ccc3C2=O)C1 (stereo partly shown) [Example 321] in the same way.
8.05

Consider next the compound O=C(CN1CC2(CC2)c2cc(Br)ccc2C1=O)Nc1ncc(Cl)cn1 [Example 4] in the same way.
7.41

Consider next the compound O=C(CN1C[C@]2(C[C@H]2F)c2cc(Br)ccc2C1=O)Nc1ncc(F)cn1 [Example 79] in the same way.
7.82

Consider next the compound O=C(CN1CC2(CC2)c2cc(Br)ccc2C1=O)Nc1ccc2ccccc2n1 [Example 198] in the same way.
5.82

Consider next the compound O=C(CN1CC2(CC2)c2cc(OC(F)F)ccc2C1=O)Nc1ncccn1 [Example 33] in the same way.
5.89

Consider next the compound O=C(CN1CC2(CC2)c2cc(Br)ccc2C1=O)NC1CC(C(F)F)C1 (stereo not shown) [Example 111] in the same way.
5.62

###

Exercise: for every item that follows, state its recorded pIC50.
System: NLRP3
Assay: IL-1β secretion assay in PMA-differentiated, LPS/nigericin-stimulated THP-1 cells (384-well, ELISA read-out)
Format: cell-based, human
Settings: Homo sapiens, THP-1, Table 4; IL-1β secretion, LPS/nigericin-stimulated THP-1 cells; read-out: IC50
Please note pIC50 is a logarithmic value: minus log10 of concentration in mol/L. Answer with that number alone.

Given the entry O=C(CN1CC2(CC2)c2cc(Br)ccc2C1=O)Nc1ncc(C2CC2(F)F)cn1 (stereo not shown) [Example 309] , what pIC50 was observed with NLRP3?
6.16

Consider next the molecule O=C(CN1CC2(CC2)c2cc(Br)ccc2C1=O)Nc1ncc2c(n1)OCC2 [Example 329] in the same way.
6.03

Consider next the molecule C[C@@H](F)[C@H]1CN(CC(=O)Nc2ncc(F)cn2)C(=O)c2ccc(Br)cc21 [Example 294] in the same way.
6.69

Consider next the molecule CC1CC12CN(CC(=O)Nc1ncccn1)C(=O)c1ccc(C(F)(F)F)cc12 (stereo not shown) [Example 29] in the same way.
6.41

Consider next the molecule CCN1CC[C@@H](NC(=O)CN2CC3(CC3)c3cc(Br)ccc3C2=O)C1 [Example 384] in the same way.
4.94

Consider next the molecule O=C(CN1CC2(CC2)c2cc(Br)ccc2C1=O)NC1CCCC(O)C1 (stereo not shown) [Example 58] in the same way.
5.51

Consider next the molecule O=C(CN1CC2(CC2)c2cc(Br)ccc2C1=O)NC1CC(O)(C(F)(F)F)C1 (stereo not shown) [Example 55] in the same way.
6.06

Consider next the molecule Cc1cnc(NC(=O)CN2CC3(CC3)c3cc(Br)ccc3C2=O)c(F)c1 [Example 396] in the same way.
5.80

Consider next the molecule O=C(CN1CC2(CC2)c2cc(C3(F)CC3)ccc2C1=O)Nc1ncc(F)cn1 [Example 255] in the same way.
6.83

Consider next the molecule O=C(CN1CC2(CC2)c2cc(Br)ccc2C1=O)Nc1ccc2cnsc2c1 [Example 398] in the same way.
5.72

Consider next the molecule O=C(CN1CC2(CC2)c2cc(Br)ccc2C1=O)Nc1ccccc1OC(F)F [Example 113] in the same way.
5.38

Consider next the molecule Cn1nc(NC(=O)CN2CC3(CC3)c3cc(Br)ccc3C2=O)ccc1=O [Example 335] in the same way.
5.68

Consider next the molecule O=C(CN1C[C@@]2(C[C@@H]2F)c2c(ccc(Br)c2F)C1=O)Nc1ncc(C(F)(F)F)cn1 (single isomer, unassigned) [Example 226] in the same way.
7.51

Consider next the molecule O=C(CN1CC2(CC2)c2cc(Br)ccc2C1=O)NCCn1ccnc1 [Example 121] in the same way.
4.92

Consider next the molecule O=C(CN1CC2(CC2)c2cc(Br)ccc2C1=O)Nc1nc2ccccn2n1 [Example 181] in the same way.
6.84

Consider next the molecule N#Cc1cnc(NC(=O)CN2C[C@@]3(C[C@@H]3F)c3c(ccc(Br)c3F)C2=O)nc1 (single isomer, unassigned) [Example 221] in the same way.
7.85

Consider next the molecule O=C(CN1CC2(CC2)c2cc(Br)ccc2C1=O)Nc1ncc(C(F)(F)F)cc1F [Example 9] in the same way.
6.40

Consider next the molecule CCC1CN(CC(=O)Nc2ncncc2F)C(=O)c2ccc(Br)cc21 (stereo not shown) [Example 1] in the same way.
5.86

Consider next the molecule O=C(CN1CC2(CC2)c2cc(Br)ccc2C1=O)Nc1cc2n(n1)CCOC2 [Example 362] in the same way.
5.84

Consider next the molecule CC(C)(O)C12CC(NC(=O)CN3CC4(CC4)c4cc(Br)ccc4C3=O)(C1)C2 [Example 49] in the same way.
5.52

Consider next the molecule O=C(CN1CC2(CC2)c2cc(Br)ccc2C1=O)N[C@@H]1CCN(C2COC2)C1 [Example 381] in the same way.
4.92

Consider next the molecule Cc1c[nH]c(=O)c(NC(=O)CN2CC3(CC3)c3cc(Br)ccc3C2=O)c1 [Example 154] in the same way.
5.36

Consider next the molecule O=C(CN1CC2(CC2)c2cc(Br)ccc2C1=O)N[C@@H]1CCCN(C2COC2)C1 [Example 365] in the same way.
5.67

Consider next the molecule O=C(CN1CC2(CC2)c2cc(Br)ccc2C1=O)NCC1CCC1 [Example 164] in the same way.
5.22

Consider next the molecule N#Cc1cc(F)c(NC(=O)CN2CC3(CC3)c3cc(Br)ccc3C2=O)cn1 [Example 345] in the same way.
4.82

Consider next the molecule O=C(CN1CC2(CC2)c2cc(Br)ccc2C1=O)NCCN1CCOCC1 [Example 128] in the same way.
4.92

Consider next the molecule O=C(CN1CC2(CC2)c2cc(Br)ccc2C1=O)NCc1ccncc1 [Example 122] in the same way.
4.52

Consider next the molecule COC(=O)N1CCC[C@@H](NC(=O)CN2CC3(CC3)c3cc(Br)ccc3C2=O)C1 [Example 71] in the same way.
5.16

Consider next the molecule O=C(CN1CC2(CC2)c2c(ccc3sccc23)C1=O)Nc1ncc(F)cn1 [Example 315] in the same way.
5.05

Consider next the molecule N#CC1CC(NC(=O)CN2CC3(CC3)c3cc(Br)ccc3C2=O)C1 (stereo not shown) [Example 65] in the same way.
5.16

Consider next the molecule O=C(CN1CC2(CC2)c2c(F)cccc2C1=O)Nc1ncc(F)cn1 [Example 42] in the same way.
5.28

Consider next the molecule O=C(CN1CC2(CC2)c2cc(Br)ccc2C1=O)NC1CCNC1=O (stereo not shown) [Example 406] in the same way.
4.79

Consider next the molecule N#Cc1ccc(NC(=O)CN2CC3(CC3)c3cc(Br)ccc3C2=O)nc1 [Example 72] in the same way.
6.29

Consider next the molecule O=C(CN1CC2(CC2)c2cc(Br)ccc2C1=O)Nc1noc2ccccc12 [Example 377] in the same way.
5.65
